The values you see were collected from ChEMBL document CHEMBL1201862.

Listed next: entries and their corresponding GI50.
# System: MOLT-4
# Procedure Text: NCI tumour cell line growth inhibition, 48 h
The source made the active and inactive calls. No stated cut-off is given here; in the data, active = GI50 up to about 1.1 µM and inactive = higher.

The examples below pair each entry with its known result.
CC(=O)C1C(=O)C(=O)N(c2ccc(Cl)cc2C)C1=O (stereo unspecified) : > 100 µM (inactive)
COC(=O)C#CCC1CCCC1C1SCCS1 (stereo unspecified) : 21.2 µM (inactive)

Report GI50 for Cc1ccc(C)n1-c1ccccc1C1C=Cn2c3c1c(=O)c(OC(C)C)c(OC(C)C)c-3n[nH]c2=O (stereo unspecified)
6.62 µM (inactive)

Report GI50 for COC(CC1(/C=C/O[Si](C(C)C)(C(C)C)C(C)C)C(=O)N(COCC[Si](C)(C)C)c2ccccc21)OC (stereo unspecified)
22.1 µM (inactive)

Report GI50 for "COc1ccc(Nc2nc3ccccc3nc2C(=O)O)cc1"
84.1 µM (inactive)

Report GI50 for "O=c1c(Sc2ncccn2)c(Sc2ncccn2)cnn1CCl"
2.72 µM (inactive)

----------
# System: HT-29
# Procedure Text: NCI tumour cell line growth inhibition, 48 h
Active and inactive are the calls of the source. No stated cut-off is given here; in the data, active = GI50 up to about 1.1 µM and inactive = higher.
Listed next: entries and their corresponding GI50.

The examples below pair each entry with its known result.
COc1ccc(/C=C2\CC3C4CC=C5C[C@@H](O)CC[C@]5(C)C4CC[C@]3(C)C2=O)cc1OC (stereo not given in full) : 31.8 µM (inactive)
COc1ccc(-n2c(-c3ccccc3)cc(-c3cccs3)c2-c2cccs2)cc1 : > 100 µM (inactive)
COc1ccc(Cc2cc(OC)c(OC)c(OC)c2)cc1O : 14.3 µM (inactive)
COc1ccc(C2ON(c3cccc(C)n3)CC=C2C)cc1 (stereo not given) : 32 µM (inactive)
COc1ccc2c(c1)C(N)=C(c1ccccc1OC)C2=O : > 100 µM (inactive)

Provide GI50, system HT-29, entry COc1cc(NC(C)=O)ccc1C(=O)NN1C(=O)C(Cl)C1c1ccco1 (stereo not given)
> 100 µM (inactive)

Provide GI50, system HT-29, entry CCCCCCCCCCCC(=O)C1=C(O)CCC(O)C1=O (stereo not given)
15.6 µM (inactive)

Provide GI50, system HT-29, entry "COc1ccc(-c2cc(O)c3cc4c(cc3n2)OCO4)c(OC)c1"
43 µM (inactive)

Provide GI50, system HT-29, entry "C[C@]12CCC(=O)C=C1CC[C@@H]1[C@@H]2[C@@H](O)C[C@@]2(C)[C@H]1CC[C@]2(O)C(=O)COC(=O)C1CCCC1"
67.8 µM (inactive)

Provide GI50, system HT-29, entry COc1cc(C2SC(=N)Nc3c2c(C)nn3C(=O)c2ccccc2O)ccc1O (stereo not given)
> 6.38 µM (inactive)

----------
Listed next: entries and their corresponding GI50.
# Test system: NCI-H460
# Procedure Text: NCI tumour cell line growth inhibition, 48 h
Active and inactive are the calls of the source. Rule as the data show it: active = GI50 up to about 1.1 µM and inactive = higher. Residues, ends and D or L forms follow the SMILES beside them. *: point of attachment. Boc = CC(C)(C)OC(=O)*

CC1(C)C(C#N)C1C1=C(N2CCOCC2)[C@]2(C)C(OC(=O)c3ccccc3)CC[C@@H]2C1 (some centres undefined) : > 100 µM (inactive)
Cn1c2ccccc2c2ccc3c(c21)C(=O)C(c1ccccc1)=CC3=O : 9.27 µM (inactive)

Report GI50 for "COc1ccc(/C(Cl)=C(\C=O)c2ccc(OC)c(OC)c2)cc1"
35.2 µM (inactive)

Report GI50 for "Cc1nc(C)c(C(=O)NNC(=O)Cc2ccccc2)cc1C(=O)NNC(=O)Cc1ccccc1"
> 100 µM (inactive)

Report GI50 for CC(NC(=O)C(NC(=O)OC(C)(C)C)C(C)C)C(=O)N1CCCC1C(=O)NCC(=O)NC(C(=O)NCC(=O)O)C(C)C (centres undefined) (Boc-VAPGVG-OH; configuration not given here)
65.5 µM (inactive)

Report GI50 for COC(=O)C1OC2(CCCC3CC32)O[C@H]1C(=O)OC (some centres undefined)
90.4 µM (inactive)

Report GI50 for "Clc1ccc(OCc2nnc3n2N=C(c2ccccc2)CS3)cc1"
16.8 µM (inactive)

Report GI50 for CC1CCCC(C(O)CC2CC(=O)N(c3ccccc3)C(=O)C2)C1=O (centres undefined)
> 100 µM (inactive)

Report GI50 for [N-]=[N+]=NC1(c2ccccc2)C(=O)c2cccc3c4ccccc4n(c23)C1=O (centres undefined)
> 100 µM (inactive)

----------
Listed next: entries and their corresponding GI50.
# Tested on: T47D
# Procedure Text: NCI tumour cell line growth inhibition, 48 h
Activity calls are given as the source filed them. Rule as the data show it: active = GI50 up to about 1.1 µM and inactive = higher.

The examples below pair each entry with its known result.
O=C(CCC(=O)OCC1OC(O)(CC2OC(CO)C(O)C(O)C2O)C(O)C1O)OCc1ccccc1 (stereo not drawn) : > 100 µM (inactive)
CC(NC(=O)C(OC(=O)C(C)NC(=O)OC(C)(C)C)C(C)C)C(=O)OC(C(=O)O)C(C)C (stereo not drawn) : > 100 µM (inactive)
CC(=O)c1cc2sc3ccccc3c2[nH]1 : > 100 µM (inactive)
COc1cc(CC2CC(c3ccc4c(c3)OCO4)OC2=O)cc(OC)c1OC (stereo not drawn) : 39 µM (inactive)

Report GI50 for "C[C@H]1[C@H]2[C@H]3CC[C@@H]4[C@@]5(C)CC[C@H](O)C(C)(C)[C@@H]5CC[C@@]4(C)[C@]3(C)C[C@H](O)[C@@]2(C)C[C@H]2O[C@]21C"
16 µM (inactive)

Report GI50 for "Cc1ccc2nc(NC(=O)/C(Cc3nc4ccc(Cl)cc4nc3O)=N\NC(C)(C)C)sc2c1"
> 100 µM (inactive)

Report GI50 for CC1CCC2C(C(=O)O[C@H]3C4CCO[C@@H](OC5OC(CO)C(O)C(O)C5O)C4[C@@]4(CO)O[C@@H]34)=CO[C@@H](OC3OC(CO)C(O)C(O)C3O)C12 (stereo partly drawn)
> 10 µM (inactive)

Report GI50 for "O=c1[nH]c2nc(S)nc(S)c2[nH]1"
> 100 µM (inactive)

----------
# System: U-251
# Procedure Text: NCI tumour cell line growth inhibition, 48 h
The source made the active and inactive calls. No stated cut-off is given here; in the data, active = GI50 up to about 1.1 µM and inactive = higher.
Experimental Readout: GI50

The examples below pair each entry with its known result.
Fc1cccc(/C=N/C23CC4CC(CC(C4)C2)C3)c1 : > 100 µM (inactive)
COC(=O)C1OC2(CCCC3CC32)O[C@H]1C(=O)OC (stereo partly specified) : > 100 µM (inactive)
Nc1ccn(C2CC3OCC3O2)c(=O)n1 (stereo unspecified) : > 100 µM (inactive)
N#CCCN(CCC#N)c1ccc(/C=C2\N=C(c3ccccc3)N(c3ccc(F)cc3)C2=O)cc1 : > 100 µM (inactive)
COc1ccc(/C(Cl)=C(\C=O)c2ccc(OC)c(OC)c2)cc1 : 29.8 µM (inactive)
CC1(c2ccc(Cl)cc2)c2ccccc2C(=O)N1CCCN1C(=O)c2ccccc2C1=O (stereo unspecified) : 52.8 µM (inactive)
C=C(C)C(=O)O[C@H]1CC2=CC(CC(C)=C[C@H]3OC(=O)C(=C)C13)OC2=O (stereo partly specified) : > 100 µM (inactive)
O=C1/C(=C/c2ccc(Cl)c(Cl)c2)CNC/C1=C\c1ccc(Cl)c(Cl)c1 : 5.11 µM (inactive)

Provide GI50, system U-251, entry "Cc1nc(OCc2ccccc2)c2ncn(CCO)c2n1"
> 100 µM (inactive)

Provide GI50, system U-251, entry "N/C(=N\c1c([N+](=O)[O-])cnc2ccccc12)N1CCOCC1"
> 100 µM (inactive)

Provide GI50, system U-251, entry "NNC(=S)NCCNC(=S)NN"
> 100 µM (inactive)

----------
Listed next: entries and their corresponding GI50.
# System: SN12C
# Procedure Text: NCI tumour cell line growth inhibition, 48 h
Active and inactive are the calls of the source. Cut-off read from the data, not from the text of the source: active = GI50 up to about 1.1 µM and inactive = higher.

The examples below pair each entry with its known result.
CCOC(=O)Cc1c(C)c2ccc(OC(C)=O)c(OC(C)=O)c2oc1=O : 41.8 µM (inactive)
NS(=O)(=O)c1ccc(NCc2cnc3ccccc3c2)cc1 : > 100 µM (inactive)
Nc1nc(Cl)cc(NCC2(CO)CC(c3ccccc3)C2)n1 (stereo not drawn) : 13.8 µM (inactive)

Report GI50 for "CN(C)CCNC(=O)c1cccc2cc3cc(O)ccc3nc12"
1.1 µM (active)

Report GI50 for Nc1ccn(C2CC3OCC3O2)c(=O)n1 (stereo not drawn)
> 100 µM (inactive)

----------
# Tested on: OVCAR-4
# Procedure Text: NCI tumour cell line growth inhibition, 48 h
Active and inactive are the calls of the source. Rule as the data show it: active = GI50 up to about 1.1 µM and inactive = higher.
Listed next: entries and their corresponding GI50.

The examples below pair each entry with its known result.
COC(=O)c1s/c(=N\C(=S)N(C)C)n(-c2ccccc2)c1C(=O)OC : 94 µM (inactive)
[O-][S+]1c2ccc(Cl)cc2CC(SSC2Cc3cc(Cl)ccc3[S+]([O-])c3ccccc32)c2ccccc21 (stereo not drawn) : > 100 µM (inactive)
[N-]=[N+]=NC1C(O)C(CO)OC1n1ccc(=O)[nH]c1=O (stereo not drawn) : > 875 µM (inactive)
COc1cc(I)c2c3c1OC1C34CCN(C)C(C2)C4=CC(I)C1(OC)OC (stereo not drawn) : 15 µM (inactive)
O=C(CC1(O)C(=O)Nc2c(Cl)cc(Cl)cc21)c1ccco1 (stereo not drawn) : 15.7 µM (inactive)

Report GI50 for C=C(C)C(=O)O[C@H]1CC2=CC(CC(C)=C[C@H]3OC(=O)C(=C)C13)OC2=O (stereo partly drawn)
34.8 µM (inactive)

Report GI50 for CCCCCCCCCCCCOCCOCCOCCOCCOCCOCC(=O)NC(Cc1ccccc1)C(=O)Oc1ccc([N+](=O)[O-])cc1 (stereo not drawn)
40.9 µM (inactive)

Report GI50 for "CC1=NN(C(=O)c2ccccc2O)C(=O)/C1=C/c1ccc(O)cc1"
1.48 µM (inactive)
